# protocol notes: soluble on expression in E. coli; label from the status in PepcDB or PDB records
measurement name: soluble on expression in E. coli

residues=MGSDKIHHHHHHMTEAHNACCHPSGTAAGHHGAGKASTDMMDAVDRRLLDIIQTGFPIEPRPYAVLGETLGITECEALARVRALRERKVIRRLGANFDSWKLGFRSTLCAAKVPEDRIDAFVAEVNRHVNVTHNYLRNHEYNIWFTCICPSWEQVCSLLDGITERTGIPILNLPATKLYKIRVDFRMD result="not soluble"
residues=MENSFELMAREWHKNKADRWSLRYREEIIDTFEKDIFPFIGRRPIADIKPMELLETLKRMEKRGALEKMRKVRQRCGEVFRYAIITGRAEYNPAPDLAGALQTHKKQHLPLEHHHHHH result="not soluble"
residues=MGSDKIHHHHHHMKRARAATNLPETRQPRSAHFAQAGQRWSDDVDASTTGVSKHDMCFAVASRESVRPYVLPRNKNDMADAEAICEAVTRPNMRFVAVKTAAQQSVLMLHRCRALLVRQRTMLANAIRAHLAEFGIVMPQGIRTLLTALIAPKDEVNDLPHLVRVALAPMAANLIELGQRIKGLEIEIAREHRGNETSRRLETIPGFGVMTSTAMAATVADPTAFKSGREFAAWLGLTPRESSSGGKQRLGGITKMGDGYLRTLLVVGATAVIRFAREEGSAKTAWIRKLMEKKPAKVVAVALANKMARIAWPLMTRGEVYRVIPA result="not soluble"

The reported numbers originate from the DeepSol protein solubility set.
